Hey, just so you know, these numbers are from the supplement of paper PMC10567573.

B1: SPOPL (parent)
chain: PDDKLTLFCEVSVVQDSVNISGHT

- Variants of: B1
- method: protein stability index of a GFP-peptide fusion (GPS, HEK-293T) (PSI 1-6); higher = more stable;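 note: lentivirally expressed fusions sorted by FACS into six bins by GFP to DsRed ratio, PSI derived from sequencing read proportions per bin multiplied by bin number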
- test conditions: c terminus: a fixed tail appended
result type: protein stability index
Returns: the value as a bare number; no unit string appended.

A selection of reference data follows.
# sequence content, result type, number
data = [
    ("PDDKLTHFCEVSVVQDSVNISGHT [L7H]", "protein stability index", 3.79),
    ("PDDMLTLFCEVSVVQDSVNISGHT [K4M]", "protein stability index", 1.58),
    ("PDDKLPLFCEVSVVQDSVNISGHT [T6P]", "protein stability index", 3.47),
]

I am curious: what protein stability index value has been reported for PDDKLTLFCEVMVVQDSVNISGHT [S12M] ? 1.79

Would you mind doing PDQKLTLFCEVSVVQDSVNISGHT [D3Q] as well? 1.95

One more variant: PDDKLTLFCEVSVVQDSVNISGHS [T24S] 2.38
